- System: KRAS-mutant PDC tumor spheroid with HUVEC/MSC, viability
- Method Summary: Anticancer human tumor 327498-153-R-J2-PDC patient-derived uterine carcinosarcoma cell line growth inhibition [KRAS2]
- Experimental Parameters: second compound 1 µM; first compound 10 µM; stronger effect = lower value
Quick reference for viability, T/C among some compounds
Provide only the numeric value, understood in %.

Value lookup for viability, T/C; key = COC(=O)c1ccc2c(C(=Nc3ccc(N(C)C(=O)CN4CCN(C)CC4)cc3)c3ccccc3)c(O)[nH]c2c1 + C=CC(=O)N1CCN(c2nc(=O)n(-c3c(C)ccnc3C(C)C)c3nc(-c4c(O)cccc4F)c(F)cc23)C(C)C1
3.38

Recorded viability, T/C for CC1(C)CCC(CN2CCN(c3ccc(C(=O)NS(=O)(=O)c4ccc(NCC5CCOCC5)c([N+](=O)[O-])c4)c(Oc4cnc5[nH]ccc5c4)c3)CC2)=C(c2ccc(Cl)cc2)C1 + C=CC(=O)N1CCN(c2nc(OCC3CCCN3C)nc3c2CCN(c2cccc4cccc(C)c24)C3)CC1CC#N , please?
0.31

May I ask what viability, T/C has been recorded for CCNC(=O)CC1N=C(c2ccc(Cl)cc2)c2cc(OC)ccc2-n2c(C)nnc21 (centres undefined) + C=CC(=O)N1CCN(c2nc(=O)n(-c3c(C)ccnc3C(C)C)c3nc(-c4c(O)cccc4F)c(F)cc23)C(C)C1 ?
22.7

Query (compound): COc1cc2nccc(Oc3ccc(NC(=O)C4(C(=O)Nc5ccc(F)cc5)CC4)cc3)c2cc1OC + CC1OCC2(CCN(c3cnc(Sc4ccnc(N)c4Cl)c(N)n3)CC2)C1N ; field requested: viability, T/C
1.02

====

Measured pIC50 values are reported for all entries that follow.
- System: KRAS-mutant PDC tumor spheroid with HUVEC/MSC, viability
- Method Summary: Anticancer human tumor 327498-153-R-J2-PDC cell line growth inhibition [KRAS2];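 further: spheroids exposed to agents for seven days before reading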
- Experimental Parameters: curve of first compound; second compound 3.16 µM
In textbook form, pIC50 equals minus log to base ten of the concentration in mol/L.

Take a look at these entries with their results.
Compound: Cn1ncnc1[C@H]1c2n[nH]c(=O)c3cc(F)cc(c23)N[C@@H]1c1ccc(F)cc1 + COc1cc2nc(C)nc(NC(C)c3cc(N)cc(C(F)(F)F)c3)c2cc1OC1CCOC1
pIC50: 8.13
--
Compound: Cn1nccc1Nc1nccc(-c2cc3c(s2)C(C)(C)N(CCN2CCOCC2)C3=O)n1 + COc1cc2nc(C)nc(NC(C)c3cc(N)cc(C(F)(F)F)c3)c2cc1OC1CCOC1
pIC50: 6.27

Give pIC50 (KRAS-mutant PDC tumor spheroid with HUVEC/MSC, viability) of the following compound: CCNC(=O)CC1N=C(c2ccc(Cl)cc2)c2cc(OC)ccc2-n2c(C)nnc21 (stereo not given) + C=CC(=O)N1CCN(c2nc(=O)n(-c3c(C)ccnc3C(C)C)c3nc(-c4c(O)cccc4F)c(F)cc23)C(C)C1
6.93

====

- System: KRAS-mutant PDC tumor spheroid with HUVEC/MSC, viability
- Method Summary: Anticancer human tumor 327498-153-R-J2-PDC cell line growth inhibition [KRAS2];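 further: spheroids exposed to agents for seven days before reading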;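 on viability, T/C: 100% = DMSO vehicle wells so lower means fewer viable cells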
- Experimental Parameters: second compound 10 µM; first compound 0.1 µM; stronger effect = lower value
Sorting guide: entries reporting viability, T/C beneath 20% go in the met pile, the rest go in the not met pile.

Molecule: CC(=O)OC12COC1CC(O)C1(C)C(=O)C(O)C3=C(C)C(OC(=O)C(O)C(NC(=O)OC(C)(C)C)c4ccccc4)CC(O)(C(OC(=O)c4ccccc4)C21)C3(C)C (stereo not drawn) + COc1cc2nc(C)nc(NC(C)c3cc(N)cc(C(F)(F)F)c3)c2cc1OC1CCOC1
System Tested: KRAS-mutant PDC tumor spheroid with HUVEC/MSC, viability
Classification: met

Please check: viability, T/C for CC(=O)OC12COC1CC(O)C1(C)C(=O)C(O)C3=C(C)C(OC(=O)C(O)C(NC(=O)OC(C)(C)C)c4ccccc4)CC(O)(C(OC(=O)c4ccccc4)C21)C3(C)C (stereo not drawn) + CC1OCC2(CCN(c3cnc(Sc4ccnc(N)c4Cl)c(N)n3)CC2)C1N , strictly under 20% or not?
met

In the record for COc1cc(Nc2ncc3c(n2)-c2ccc(Cl)cc2C(c2c(F)cccc2OC)=NC3)ccc1C(=O)O + C=CC(=O)N1CCN(c2nc(=O)n(-c3c(C)ccnc3C(C)C)c3nc(-c4c(O)cccc4F)c(F)cc23)C(C)C1 , is viability, T/C less than 20%?
met

Just wondering, is viability, T/C of Cn1nccc1Nc1nccc(-c2cc3c(s2)C(C)(C)N(CCN2CCOCC2)C3=O)n1 + CC1OCC2(CCN(c3cnc(Sc4ccnc(N)c4Cl)c(N)n3)CC2)C1N below 20%?
not met

Bench note: check whether Cn1nccc1Nc1nccc(-c2cc3c(s2)C(C)(C)N(CCN2CCOCC2)C3=O)n1 + C=CC(=O)N1CCN(c2nc(=O)n(-c3c(C)ccnc3C(C)C)c3nc(-c4c(O)cccc4F)c(F)cc23)C(C)C1 shows viability, T/C below 20%
not met

Hello, I'm reviewing records and need to know if viability, T/C of CC(C)NCC(C(=O)N1CCN(c2ncnc3c2C(C)CC3O)CC1)c1ccc(Cl)cc1 (stereo not drawn) + C=CC(=O)N1CCN(c2nc(=O)n(-c3c(C)ccnc3C(C)C)c3nc(-c4c(O)cccc4F)c(F)cc23)C(C)C1 is below 20%. Could you check?
met

Field: below-cutoff. Rule: recorded viability, T/C strictly less than 20%. Subject: CC1(C)CCC(CN2CCN(c3ccc(C(=O)NS(=O)(=O)c4ccc(NCC5CCOCC5)c([N+](=O)[O-])c4)c(Oc4cnc5[nH]ccc5c4)c3)CC2)=C(c2ccc(Cl)cc2)C1 + COc1cc2nc(C)nc(NC(C)c3cc(N)cc(C(F)(F)F)c3)c2cc1OC1CCOC1
not met

Does the reported viability, T/C of the following molecule sit strictly below 20%? CN(C)C/C=C/C(=O)Nc1cc2c(Nc3ccc(F)c(Cl)c3)ncnc2cc1O[C@H]1CCOC1 + C=CC(=O)N1CCN(c2nc(=O)n(-c3c(C)ccnc3C(C)C)c3nc(-c4c(O)cccc4F)c(F)cc23)C(C)C1
not met

Hi there! Is viability, T/C for Cn1ncnc1[C@H]1c2n[nH]c(=O)c3cc(F)cc(c23)N[C@@H]1c1ccc(F)cc1 + COc1cc2nc(C)nc(NC(C)c3cc(N)cc(C(F)(F)F)c3)c2cc1OC1CCOC1 below 20%, do you know?
met

I'd appreciate it if you could check whether CN(C)C/C=C/C(=O)Nc1cc2c(Nc3ccc(F)c(Cl)c3)ncnc2cc1O[C@H]1CCOC1 + CNCc1ccccc1-c1csc(C(C)Nc2nc(C)nc3cc(OC)c(OC)cc23)c1 has viability, T/C smaller than 20%.
met

is_below(viability, T/C, 20%) for COC(=O)c1ccc2c(C(=Nc3ccc(N(C)C(=O)CN4CCN(C)CC4)cc3)c3ccccc3)c(O)[nH]c2c1 + C=CC(=O)N1CCN(c2nc(=O)n(-c3c(C)ccnc3C(C)C)c3nc(-c4c(O)cccc4F)c(F)cc23)C(C)C1 ?
not met

I wonder whether COc1cc(Nc2ncc3c(n2)-c2ccc(Cl)cc2C(c2c(F)cccc2OC)=NC3)ccc1C(=O)O + CNCc1ccccc1-c1csc(C(C)Nc2nc(C)nc3cc(OC)c(OC)cc23)c1 has viability, T/C below 20%. Can you tell?
met

Below 20% on viability, T/C? Entry CCN1CCN(Cc2ccc(Nc3ncc(F)c(-c4cc(F)c5nc(C)n(C(C)C)c5c4)n3)nc2)CC1 + COc1cc2nc(C)nc(NC(C)c3cc(N)cc(C(F)(F)F)c3)c2cc1OC1CCOC1
not met

====

- Tested on: KRAS-mutant PDC tumor spheroid with HUVEC/MSC, viability
- Method Summary: Anticancer human tumor 327498-153-R-J2-PDC cell line growth inhibition [KRAS2];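 further: spheroids exposed to agents for seven days before reading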
- Experimental Parameters: curve of first compound; second compound 0.316 µM
pIC50: −log10 of the molar value.
Parameter: pIC50. Scope: all listed entries.

As a guide, the following entries are already answered.
Molecule: CC1OCC2(CCN(c3cnc(Sc4ccnc(N)c4Cl)c(N)n3)CC2)C1N (stereo unspecified) + C=CC(=O)N1CCN(c2nc(OCC3CCCN3C)nc3c2CCN(c2cccc4cccc(C)c24)C3)CC1CC#N
pIC50: > 7.50
//
Molecule: CC(=O)OC12COC1CC(O)C1(C)C(=O)C(O)C3=C(C)C(OC(=O)C(O)C(NC(=O)OC(C)(C)C)c4ccccc4)CC(O)(C(OC(=O)c4ccccc4)C21)C3(C)C (stereo unspecified) + COc1cc2nc(C)nc(NC(C)c3cc(N)cc(C(F)(F)F)c3)c2cc1OC1CCOC1
pIC50: > 8.00
//
Molecule: COc1cc2nccc(Oc3ccc(NC(=O)C4(C(=O)Nc5ccc(F)cc5)CC4)cc3)c2cc1OC + C=CC(=O)N1CCN(c2nc(OCC3CCCN3C)nc3c2CCN(c2cccc4cccc(C)c24)C3)CC1CC#N
pIC50: > 7.50
//
Molecule: COC(=O)c1ccc2c(C(=Nc3ccc(N(C)C(=O)CN4CCN(C)CC4)cc3)c3ccccc3)c(O)[nH]c2c1 + C=CC(=O)N1CCN(c2nc(OCC3CCCN3C)nc3c2CCN(c2cccc4cccc(C)c24)C3)CC1CC#N
pIC50: > 7.50
//
Molecule: Cn1nccc1Nc1nccc(-c2cc3c(s2)C(C)(C)N(CCN2CCOCC2)C3=O)n1 + C=CC(=O)N1CCN(c2nc(OCC3CCCN3C)nc3c2CCN(c2cccc4cccc(C)c24)C3)CC1CC#N
pIC50: > 7.50

Report pIC50 for COc1cc(Nc2ncc3c(n2)-c2ccc(Cl)cc2C(c2c(F)cccc2OC)=NC3)ccc1C(=O)O + CC1OCC2(CCN(c3cnc(Sc4ccnc(N)c4Cl)c(N)n3)CC2)C1N please.
> 7.50
